TEST TARGET: CB1 (Mus musculus, UniProt P47746)
Sequence (P47746 whole entry): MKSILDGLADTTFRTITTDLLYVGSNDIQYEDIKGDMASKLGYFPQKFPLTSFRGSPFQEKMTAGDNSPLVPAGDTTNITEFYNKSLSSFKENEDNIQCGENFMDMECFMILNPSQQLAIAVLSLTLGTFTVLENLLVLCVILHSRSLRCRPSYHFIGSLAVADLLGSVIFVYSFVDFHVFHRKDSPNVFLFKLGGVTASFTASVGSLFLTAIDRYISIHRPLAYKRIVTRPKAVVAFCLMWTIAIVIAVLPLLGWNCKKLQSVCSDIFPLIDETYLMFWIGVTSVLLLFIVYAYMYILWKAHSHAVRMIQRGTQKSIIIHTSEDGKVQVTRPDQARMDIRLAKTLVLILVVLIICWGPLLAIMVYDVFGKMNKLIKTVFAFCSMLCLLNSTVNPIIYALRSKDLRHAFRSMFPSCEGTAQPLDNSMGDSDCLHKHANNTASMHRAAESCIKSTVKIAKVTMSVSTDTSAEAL
EXPERIMENT: biochemical
MEASUREMENT PARAMETERS: EC50 of 2-AG for stimulation of GTPγS binding after preincubation with OP 1
ASSAY METRIC: EC50 (µM)
Write the answer as a number in µM, unit excluded.

Prompt: # lookup: EC50 of CCCCC/C=C\C/C=C\C/C=C\C/C=C\CCCC(=O)OC(CO)CO
Response: 0.3

* * *

TEST TARGET: CB1 (Mus musculus, UniProt P47746)
ASSAY METRIC: Kd (nM)
Could you give me the number in nM? Just the number is fine.

Prompt: Query (compound): CCCCCCC(C)(C)c1ccc([C@@H]2C[C@H](O)CC[C@H]2CCCO)c(O)c1 [[^3H]CP55940] ; field requested: Kd
Response: 0.86
